Numbers sourced from ChEMBL document CHEMBL4190241.

# ASSAY: Cytotoxicity against African green monkey Vero A cells assessed as reduction in cell viability after 6 to 7 days by MTS assay
# Assay type: cell-based
# REPORTED CONDITIONS: chlorocebus sabaeus
QUANTITY MEASURED: CC50 (µM)
Number in µM, nothing else.

Can you share its CC50? I mean this compound: CCC(=O)O[C@@H]1[C@@H]2[C@@H](OC(=O)C(C)CC)[C@@]3(COC(C)=O)[C@@H]([C@@H]4[C@H](C[C@H]3OC(C)=O)C4(C)C)[C@](C)(OC(C)=O)C(=O)[C@@]2(O)C[C@@H]1C (some centres not stated)
153

====

# ASSAY: Cytotoxicity against African green monkey Vero A cells assessed as reduction in cell viability after 6 to 7 days by MTS assay
# Type: cell-based
# REPORTED CONDITIONS: chlorocebus sabaeus
QUANTITY MEASURED: CC50 (µM)
A number alone suffices; assume µM.

# CC50 lookup, item CCC(=O)O[C@@H]1[C@@H]2[C@@H](OC(=O)c3ccccc3)[C@]3(COC(C)=O)[C@H](O)C[C@H]4[C@@H]([C@H]3[C@](C)(O)C(=O)[C@@]2(OC(C)=O)C[C@@H]1C)C4(C)C
63.5

====

# ASSAY: Cytotoxicity against African green monkey Vero A cells assessed as reduction in cell viability after 6 to 7 days by MTS assay
# Format: cell-based
# REPORTED CONDITIONS: chlorocebus sabaeus
QUANTITY MEASURED: CC50

Entry CC(=O)OC[C@]12[C@H](OC(=O)c3ccccc3)[C@H]3[C@@H](OC(C)=O)[C@@H](C)C[C@]3(O)C(=O)[C@@](C)(OC(C)=O)[C@@H]1[C@@H]1[C@H](C[C@H]2OC(C)=O)C1(C)C : reported CC50 = ?
171 µM

# CC50 lookup, item CCN(CC)CCCC(C)Nc1ccnc2cc(Cl)ccc12 (centres undefined) [CHLOROQUINE]
89 µM

Dear colleague, I am looking for the recorded CC50 of the following compound: C=C(C)C1C=C[C@@H](OC(C)=O)[C@@]23CO[C@@](C)([C@H](OC(=O)c4ccccc4)[C@@]4(O)C[C@H](C)[C@H](OC(=O)CC)[C@@H]4[C@H]2OC(C)=O)[C@H]13 (some centres undefined)
158 µM

Look at this compound and give its reported CC50. CC(=O)OCC1=C[C@H]2[C@@H]3C(C)(C)[C@]3(OC(=O)C(C)C(C)C)C[C@@H](C)[C@]2(O)[C@@H]2C=C(C)C(=O)[C@H]2C1 (some centres undefined)
42.7 µM

====

# ASSAY: Selectivity index, ratio of CC50 for African green monkey Vero A cells to EC50 for Chikungunya virus Indian ocean strain 899 infected in African green monkey Vero A cells
# Format: toxicity
# REPORTED CONDITIONS: read-out: Ratio CC50/EC50
Answer each item with its documented selectivity ratio.
Lab note: record just the number, no unit beside it.

I am curious: what selectivity ratio value has been reported for CCC(=O)O[C@@H]1[C@@H]2[C@@H](OC(=O)C(C)CC)[C@@]3(COC(C)=O)[C@@H]([C@@H]4[C@H](C[C@H]3OC(C)=O)C4(C)C)[C@](C)(OC(C)=O)C(=O)[C@@]2(O)C[C@@H]1C (some centres not stated) ?
2.2

# query: selectivity ratio of entry CC(=O)OCC1=C[C@H]2[C@@H]3C(C)(C)[C@]3(OC(=O)C(C)C(C)C)C[C@@H](C)[C@]2(O)[C@@H]2C=C(C)C(=O)[C@H]2C1 (some centres not stated)
10.6

Would you mind telling me what selectivity ratio value was observed for C=C(C)C1C=C[C@@H](OC(C)=O)[C@@]23CO[C@@](C)([C@H](OC(=O)c4ccccc4)[C@@]4(O)C[C@H](C)[C@H](OC(=O)CC)[C@@H]4[C@H]2OC(C)=O)[C@H]13 (some centres not stated) ?
1.9

Find the recorded selectivity ratio belonging to CC(=O)OC[C@]12[C@H](OC(=O)c3ccccc3)[C@H]3[C@@H](OC(C)=O)[C@@H](C)C[C@]3(O)C(=O)[C@@](C)(OC(C)=O)[C@@H]1[C@@H]1[C@H](C[C@H]2OC(C)=O)C1(C)C and report it.
2.2

I am curious: what selectivity ratio value has been reported for CCC(=O)O[C@@H]1[C@@H]2[C@@H](OC(=O)c3ccccc3)[C@]3(COC(C)=O)[C@H](O)C[C@H]4[C@@H]([C@H]3[C@](C)(O)C(=O)[C@@]2(OC(C)=O)C[C@@H]1C)C4(C)C ?
5.8
